B1: TPR t1 (parent)
chain: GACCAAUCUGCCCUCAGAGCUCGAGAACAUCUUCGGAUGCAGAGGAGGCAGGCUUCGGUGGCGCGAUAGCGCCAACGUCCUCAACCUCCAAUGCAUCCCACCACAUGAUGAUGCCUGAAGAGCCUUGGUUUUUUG

- Variants of: B1
- Assay Text: polymerase ribozyme fitness, log enrichment relative to wild type (log ratio); higher = more active; in vitro selection for triplet polymerase activity
Kindly return fulfilled if reported polymerase ribozyme fitness (log ratio) is no lower than -2; return not fulfilled if it is lower.

Variant Descriptor | Class
G47U U131G | fulfilled
C76U C82A G120A | fulfilled
C8A A74C G93C U116A | not fulfilled
G10U A91G C101U | fulfilled
C49A C56U G120U | fulfilled
G58C C98G | not fulfilled
G25C A26G C28A C72A G110A | not fulfilled
A6C U133A | fulfilled
A29G U32C U106A | not fulfilled
G60A G77A C82G | fulfilled
U32A C72U | not fulfilled
